// reported relative viability per item
# Tested on: NCI-H650
# assay_details: relative viability (nuclei count vs DMSO), 5 days (fraction); higher = more cells survive
# test_conditions: first compound 8 µM
Lab note: jot down the number only; don't add units.

CCCCCCCCCCCC1=C(O)C(=O)C=C(O)C1=O [Embelin] + C[C@]1(O)C[C@@H](c2nc(-c3ccc4ccc(-c5ccccc5)nc4c3)c3c(N)nccn32)C1 [Linsitinib] (partner 1 µM); 0.716
CCCCCCCCCCCC1=C(O)C(=O)C=C(O)C1=O [Embelin] + NC(=O)Nc1cc(-c2cccc(F)c2)sc1C(=O)N[C@H]1CCCNC1 [AZD7762] (partner 0.2 µM); 1.27
CCCCCCCCCCCC1=C(O)C(=O)C=C(O)C1=O [Embelin] + CC(=O)Nc1cccc(-n2c(=O)n(C3CC3)c(=O)c3c(Nc4ccc(I)cc4F)n(C)c(=O)c(C)c32)c1 [Trametinib] (partner 0.02 µM); 0.987
CCCCCCCCCCCC1=C(O)C(=O)C=C(O)C1=O [Embelin] + COc1cccc2cc(-c3nc([C@H]4CC[C@H](C(=O)O)CC4)n4ncnc(N)c34)[nH]c12 [OSI-027] (partner 0.5 µM); 0.549
CCCCCCCCCCCC1=C(O)C(=O)C=C(O)C1=O [Embelin] + CS(=O)(=O)N1CCN(Cc2cc3nc(-c4cccc5[nH]ncc45)nc(N4CCOCC4)c3s2)CC1 [Pictilisib] (partner 1 µM); 0.896

Lab note: next molecule to report on.
If you can, please state the reported relative viability value of CCCCCCCCCCCC1=C(O)C(=O)C=C(O)C1=O [Embelin] + Cc1nc(NC(=O)N2CCC[C@H]2C(N)=O)sc1-c1ccnc(C(C)(C)C(F)(F)F)c1 [Alpelisib] (partner 2 µM) . 1.06

* * *

// reported relative viability per item
# System: NCI-H838
# assay_details: relative viability (nuclei count vs DMSO), 5 days (fraction); higher = more cells survive
# test_conditions: first compound 0.4 µM

C[C@@H]1CN(CC(=O)Nc2ccc3c(c2)Cc2cccc(-c4cc(=O)cc(N5CCOCC5)o4)c2S3)C[C@H](C)O1 + CC(=O)c1c(C)c2cnc(Nc3ccc(N4CCNCC4)cn3)nc2n(C2CCCC2)c1=O [Palbociclib] (partner 0.5 µM); 0.207

Lab note: next molecule to report on.
Any idea what relative viability came out for COc1cc(N2CCC(C(N)=O)CC2)ccc1Nc1nc(N)c(Cl)c(Nc2ccccc2S(=O)(=O)C(C)C)n1 [HG-5-88-01] + O=C(CCCCCCC(=O)Nc1ccccc1)NO [Vorinostat] (partner 1 µM) on NCI-H838? 0.651

* * *

# Tested on: HCC-366
# assay_details: relative viability (nuclei count vs DMSO), 5 days (fraction); higher = more cells survive
# test_conditions: first compound 2.53 µM
// reported relative viability per item
Lab note: jot down the number only; don't add units.

Here are 3 compounds together with their reported answers.
CCCCCCCCCCCC1=C(O)C(=O)C=C(O)C1=O [Embelin] + CC(=O)c1c(C)c2cnc(Nc3ccc(N4CCNCC4)cn3)nc2n(C2CCCC2)c1=O [Palbociclib] (partner 0.5 µM); 0.49
CCCCCCCCCCCC1=C(O)C(=O)C=C(O)C1=O [Embelin] + Nc1nc2[nH]cc(CCc3ccc(C(=O)N[C@@H](CCC(=O)O)C(=O)O)cc3)c2c(=O)[nH]1 [Pemetrexed] (partner 0.2 µM); 0.151
CCCCCCCCCCCC1=C(O)C(=O)C=C(O)C1=O [Embelin] + COc1cc2c(Oc3ccc(NC(=O)C4(C(=O)Nc5ccc(F)cc5)CC4)cc3F)ccnc2cc1OCCCN1CCOCC1 [Foretinib] (partner 0.25 µM); 0.94

Lab note: next compound to report on.
If you can, please state the reported relative viability value of CCCCCCCCCCCC1=C(O)C(=O)C=C(O)C1=O [Embelin] + CS(=O)(=O)N1CCN(Cc2cc3nc(-c4cccc5[nH]ncc45)nc(N4CCOCC4)c3s2)CC1 [Pictilisib] (partner 1 µM) . 0.149

* * *

# System: NCI-H460
# assay_details: relative viability (nuclei count vs DMSO), 5 days (fraction); higher = more cells survive
# test_conditions: first compound 4 µM
measure_name: relative viability
Lab note: jot down the number only; don't add units.

Here are 3 compounds together with their reported answers.
C[C@@H]1CN(CC(=O)Nc2ccc3c(c2)Cc2cccc(-c4cc(=O)cc(N5CCOCC5)o4)c2S3)C[C@H](C)O1 + COc1cc2c(Oc3ccc(NC(=O)C4(C(=O)Nc5ccc(F)cc5)CC4)cc3F)ccnc2cc1OCCCN1CCOCC1 [Foretinib] (partner 0.25 µM); 0.862
Clc1ccc(Nc2nnc(Cc3ccncc3)c3ccccc23)cc1 [Vatalanib] + CS(=O)(=O)CCNCc1ccc(-c2ccc3ncnc(Nc4ccc(OCc5cccc(F)c5)c(Cl)c4)c3c2)o1 [Lapatinib] (partner 2 µM); 0.898
C[C@@H]1CN(CC(=O)Nc2ccc3c(c2)Cc2cccc(-c4cc(=O)cc(N5CCOCC5)o4)c2S3)C[C@H](C)O1 + O=C(CCCCCCC(=O)Nc1ccccc1)NO [Vorinostat] (partner 1 µM); 0.203

If you can, please state the reported relative viability value of COc1cc(N2CCC(C(N)=O)CC2)ccc1Nc1nc(N)c(Cl)c(Nc2ccccc2S(=O)(=O)C(C)C)n1 [HG-5-88-01] + Nc1ncn([C@H]2C[C@H](O)[C@@H](CO)O2)c(=O)n1 [Decitabine] (partner 2 µM) . 0.419

* * *

# System: 201T
# assay_details: relative viability (nuclei count vs DMSO), 5 days (fraction); higher = more cells survive
# test_conditions: first compound 0.1265 µM
Lab note - cut at 0.9 for relative viability: 1 (yes) if strictly below, 0 (no) if not.

Below are worked cases with known answers.
Clc1ccc(Nc2nnc(Cc3ccncc3)c3ccccc23)cc1 [Vatalanib] + Cc1cc(Nc2cc(N3CCN(C)CC3)nc(Sc3ccc(NC(=O)C4CC4)cc3)n2)n[nH]1 [Tozasertib] (partner 0.1 µM); 0 (no)
Clc1ccc(Nc2nnc(Cc3ccncc3)c3ccccc23)cc1 [Vatalanib] + O=C(CCCCCCC(=O)Nc1ccccc1)NO [Vorinostat] (partner 1 µM); 0 (no)
COc1cc(N2CCC(C(N)=O)CC2)ccc1Nc1nc(N)c(Cl)c(Nc2ccccc2S(=O)(=O)C(C)C)n1 [HG-5-88-01] + O=C(CCCCCCC(=O)Nc1ccccc1)NO [Vorinostat] (partner 1 µM); 0 (no)

Lab note: relative viability threshold 0.9. Does this compound come in strictly under it? Clc1ccc(Nc2nnc(Cc3ccncc3)c3ccccc23)cc1 [Vatalanib] + C[C@]1(O)C[C@@H](c2nc(-c3ccc4ccc(-c5ccccc5)nc4c3)c3c(N)nccn32)C1 [Linsitinib] (partner 1 µM) 0 (no)

Also, COc1cc(N2CCC(C(N)=O)CC2)ccc1Nc1nc(N)c(Cl)c(Nc2ccccc2S(=O)(=O)C(C)C)n1 [HG-5-88-01] + CS(=O)(=O)N1CCN(Cc2cc3nc(-c4cccc5[nH]ncc45)nc(N4CCOCC4)c3s2)CC1 [Pictilisib] (partner 1 µM) please. 1 (yes)

Also, C[C@@H]1CN(CC(=O)Nc2ccc3c(c2)Cc2cccc(-c4cc(=O)cc(N5CCOCC5)o4)c2S3)C[C@H](C)O1 + Nc1nc2[nH]cc(CCc3ccc(C(=O)N[C@@H](CCC(=O)O)C(=O)O)cc3)c2c(=O)[nH]1 [Pemetrexed] (partner 0.2 µM) please. 1 (yes)

Also, Clc1ccc(Nc2nnc(Cc3ccncc3)c3ccccc23)cc1 [Vatalanib] + CS(=O)(=O)N1CCN(Cc2cc3nc(-c4cccc5[nH]ncc45)nc(N4CCOCC4)c3s2)CC1 [Pictilisib] (partner 1 µM) please. 1 (yes)

Also, Clc1ccc(Nc2nnc(Cc3ccncc3)c3ccccc23)cc1 [Vatalanib] + C[C@@H](Oc1cc(-c2cnn(C3CCNCC3)c2)cnc1N)c1c(Cl)ccc(F)c1Cl [Crizotinib] (partner 1 µM) please. 0 (no)

Also, C[C@@H]1CN(CC(=O)Nc2ccc3c(c2)Cc2cccc(-c4cc(=O)cc(N5CCOCC5)o4)c2S3)C[C@H](C)O1 + CCNC(=O)c1noc(-c2cc(C(C)C)c(O)cc2O)c1-c1ccc(CN2CCOCC2)cc1 [Luminespib] (partner 0.01 µM) please. 0 (no)

* * *

// reported relative viability per item
# System: NCI-H3122
# assay_details: relative viability (nuclei count vs DMSO), 5 days (fraction); higher = more cells survive
# test_conditions: first compound 0.8 µM

CCCCCCCCCCCC1=C(O)C(=O)C=C(O)C1=O [Embelin] + C[C@]1(O)C[C@@H](c2nc(-c3ccc4ccc(-c5ccccc5)nc4c3)c3c(N)nccn32)C1 [Linsitinib] (partner 1 µM); 0.946
CCCCCCCCCCCC1=C(O)C(=O)C=C(O)C1=O [Embelin] + NC(=O)Nc1cc(-c2cccc(F)c2)sc1C(=O)N[C@H]1CCCNC1 [AZD7762] (partner 0.2 µM); 1.06

Any idea what relative viability came out for CCCCCCCCCCCC1=C(O)C(=O)C=C(O)C1=O [Embelin] + Nc1nc2[nH]cc(CCc3ccc(C(=O)N[C@@H](CCC(=O)O)C(=O)O)cc3)c2c(=O)[nH]1 [Pemetrexed] (partner 0.2 µM) on NCI-H3122? 0.202
